# Tested on: U2OS
# PROCEDURE DETAILS: Incucyte cell viability with U2OS; note: unitless GR value; below 1 slowed growth and below 0 cell loss
# Type: toxicity, cell-based
# CONDITION SUMMARY: human, 18 h, 10 µM, compound concentration 10 uM, replicate number 2, timepoint 18 hours
For each record, write down the corresponding Growth Rate.
Respond with the number and no other words.

The value of Growth Rate measured for the compound `CN(C)C(=O)N1CC[C@H](NC2=Nc3cc(F)ccc3N(CC(F)F)c3ccc(Cl)cc32)C1` turned out to be 0.92

The value of Growth Rate measured for the compound `CC(C)(C)c1ccc(CSc2cnn(C(C)(C)C)c(=O)c2Cl)cc1` turned out to be 0.92

The value of Growth Rate measured for the compound CSCC[C@H](NC(=O)[C@H](CC(C)C)NC(=O)CNC(=O)[C@H](Cc1ccccc1)N(C)C(=O)[C@H](Cc1ccccc1)NC(=O)[C@H](CC(=O)O)NC(=O)CCC(=O)O)C(N)=O [SENKTIDE] turned out to be 0.91
